Experimental Protocol: AUC (0 to infinity) in CD1 mouse at 13.4 mg/kg, po by LC-MS/MS analysis
Format: ADME, organism-based
Set-up: time infinity, dose 13.4 mg/kg, route oral
Condition Context: plasma
Experimental Readout: AUC(0-inf)

Challenge: Look at this compound and give its reported AUC(0-inf). Cc1cccc(CC(=O)N2CCc3c2ccc(-c2cn(C)c4ncnc(N)c24)c3F)n1
Response given: 13400 ng·h/mL

====

Experimental Protocol: Volume of distribution at steady state in Sprague-Dawley rat at 2.2 mg/kg, iv by LC-MS/MS analysis
Assay type: ADME, organism-based
Set-up: dose 2.2 mg/kg, route intravenous
Condition Context: in vivo, read-out: Vdss
Experimental Readout: Vd (L/kg)
// return numeric value only (unit: L/kg, not printed)

Challenge: Entry under review: Cc1cccc(CC(=O)N2CCc3c2ccc(-c2cn(C)c4ncnc(N)c24)c3F)n1 . Reported Vd?
Response given: 0.6
